FYI, the data here is from patent US12098144B2.

- tgt: glucocorticoid receptor (Homo sapiens)
- Construct: endogenous in cells; ATCC cat
- Sequence (P04150 1-777): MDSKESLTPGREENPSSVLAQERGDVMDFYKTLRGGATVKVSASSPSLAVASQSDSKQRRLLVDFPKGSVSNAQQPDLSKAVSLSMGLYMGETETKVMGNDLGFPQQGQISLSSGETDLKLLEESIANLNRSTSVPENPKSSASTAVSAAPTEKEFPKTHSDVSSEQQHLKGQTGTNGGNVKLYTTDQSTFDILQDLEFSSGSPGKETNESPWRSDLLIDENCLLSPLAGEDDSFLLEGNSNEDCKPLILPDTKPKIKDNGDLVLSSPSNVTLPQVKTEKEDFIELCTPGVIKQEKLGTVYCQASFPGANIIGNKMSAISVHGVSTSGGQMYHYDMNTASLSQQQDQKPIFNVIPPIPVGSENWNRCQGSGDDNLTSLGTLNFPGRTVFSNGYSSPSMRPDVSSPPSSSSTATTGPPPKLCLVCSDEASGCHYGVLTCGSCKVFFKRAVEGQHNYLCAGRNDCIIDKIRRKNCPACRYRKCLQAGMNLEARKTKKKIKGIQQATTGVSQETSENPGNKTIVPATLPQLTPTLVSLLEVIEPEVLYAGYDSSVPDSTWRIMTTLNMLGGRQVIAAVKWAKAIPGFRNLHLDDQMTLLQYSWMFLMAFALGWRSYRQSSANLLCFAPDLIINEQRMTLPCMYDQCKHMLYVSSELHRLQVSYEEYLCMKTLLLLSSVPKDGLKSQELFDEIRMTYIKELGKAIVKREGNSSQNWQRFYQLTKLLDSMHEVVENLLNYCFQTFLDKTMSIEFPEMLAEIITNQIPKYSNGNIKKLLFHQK
- assay-protocol: Hep G2 TAT Ki: inhibition of dexamethasone-induced TAT in HepG2 cells (96 well)
- run-parameters: challenge of 100 nM dexamethasone, IC50 converted to Ki by Cheng and Prusoff equation
The compounds listed here are annotated with their Ki.
quantity-name: Ki (nM)

> print(dat)
                                    compound  experimental.result
 1  CCn1cc(S(=O)(=O)N2CCN(CC(C)C)C(c3cc4cnn(-c5ccc(F)cc5)c4cc3C)C2)cn1 (stereo not drawn) [Example 38]                   46
 2  Cc1cc2c(cnn2-c2ccc(F)cc2)cc1C1CN(S(=O)(=O)c2cnn(C)n2)CCN1CC(C)C(F)(F)F (single isomer, unassigned) [Example 21]                  120
 3  Cc1cc2c(cnn2-c2ccc(F)cc2)cc1C1CN(S(=O)(=O)c2cnn(C)n2)CCN1CC(C)C (single isomer, unassigned) [Example 11]                   20
 4  Cc1cc2c(cnn2-c2ccc(F)cc2)cc1C1CN(S(=O)(=O)c2ccc(C#N)cc2)CCN1CCC(F)(F)F (single isomer, unassigned) [Example 130]                  7.7
 5  Cc1cc2c(cnn2-c2ccc(F)cc2)cc1C1CN(S(=O)(=O)c2cnn(C)n2)CCN1CC(C)(F)F (single isomer, unassigned) [Example 157]                   43
 6  Cc1cc2c(cnn2-c2ccc(F)cc2)cc1C1CN(S(=O)(=O)c2cnn(C)n2)CCN1CC(C)(C)C(F)(F)F (single isomer, unassigned) [Example 163]                   44
 7  COCCn1cc(S(=O)(=O)N2CCN(CCC(F)(F)F)C(c3cc4cnn(-c5ccc(F)cc5)c4cc3C)C2)cn1 (single isomer, unassigned) [Example 136]                   57
 8  Cc1cc2c(cnn2-c2ccc(F)cc2)cc1C1CN(S(=O)(=O)c2cnn(C)c2C)CCN1CC(C)C(F)(F)F (single isomer, unassigned) [Example 142]                   13
 9  Cc1cc2c(cnn2-c2ccc(F)cc2)cc1C1CN(S(C)(=O)=O)CCN1CC(C)C (stereo not drawn) [Example 39]                   57
10  Cc1cc2c(cnn2-c2ccc(F)cc2)cc1C1CN(S(=O)(=O)c2cnn(C)c2C)CCN1CCC(F)(F)F (single isomer, unassigned) [Example 129]                   13
11  Cc1cc2c(cnn2-c2ccc(F)cc2)cc1C1CN(S(=O)(=O)c2cnccc2C)CCN1CC(C)C (single isomer, unassigned) [Example 112]                   36
12  Cc1cc2c(cnn2-c2ccc(F)cc2)cc1C1CN(S(=O)(=O)c2cnn(C)c2)CCN1CC(C)C(F)(F)F (single isomer, unassigned) [Example 141]                   14
13  Cc1cc2c(cnn2-c2ccc(F)cc2)cc1C1CN(S(=O)(=O)c2cnn(C)n2)CCN1Cc1ccccc1 (single isomer, unassigned) [Example 6]                   46
14  Cc1cc2c(cnn2-c2ccc(F)cc2)cc1C1CN(S(=O)(=O)c2conc2C)CCN1CC(C)C (single isomer, unassigned) [Example 56]                   65
15  Cc1cc2c(cnn2-c2ccc(F)cc2)cc1C1CN(S(=O)(=O)c2cnn(C)n2)CCN1C1COC1 (single isomer, unassigned) [Example 28]                  230
16  Cc1cc2c(cnn2-c2ccc(F)cc2)cc1[C@@H]1CN(S(=O)(=O)c2cnn(C)n2)CCN1CCC(F)(F)F [Example 84]                   14
17  Cc1cc2c(cnn2-c2ccc(F)cc2)cc1C1CN(S(=O)(=O)CC(F)(F)F)CCN1CC(C)C (single isomer, unassigned) [Example 106]                   33
18  Cc1cc2c(cnn2-c2ccc(F)cc2)cc1C1CN(S(=O)(=O)CCOC(C)C)CCN1CC(C)C (single isomer, unassigned) [Example 108]                   44
19  Cc1cc2c(cnn2-c2ccc(F)cc2)cc1C1CN(S(=O)(=O)c2cnn(C)n2)CCN1CC1(C#N)CC1 (stereo not drawn) [Example 69]                  180
20  Cc1cc2c(cnn2-c2ccc(F)cc2)cc1C1CN(S(=O)(=O)c2ccccn2)CCN1CC(C)C (single isomer, unassigned) [Example 115]                   24
21  Cc1cc2c(cnn2-c2ccc(F)cc2)cc1C1CN(S(=O)(=O)c2cnn(C)n2)CCN1Cc1ccccn1 (stereo not drawn) [Example 70]                  170
22  Cc1cc2c(cnn2-c2ccc(F)cc2)cc1C1CN(S(=O)(=O)c2cccnc2C#N)CCN1CC(C)C (single isomer, unassigned) [Example 107]                   22
23  Cc1cc2c(cnn2-c2ccc(F)cc2)cc1C1CN(S(=O)(=O)c2c(C)nnn2C)CCN1CC(C)C (single isomer, unassigned) [Example 100]                   42
24  Cc1cc2c(cnn2-c2ccc(F)cc2)cc1C1CN(C(=O)c2cnn(C)n2)CCN1CC(C)C (stereo not drawn) [Example 67]                  390
